test system: Bach1 mRNA; test: Initial screen: Bach1 mRNA knock-down in human A549 cells (96-well transfection, quantitative RT-PCR); format: cell-based; conditions: Bach1 mRNA, 10 nM siNA, human A549 cells, n = 2, mean ± S.D., normalized to GAPDH and non-targeting control, 24 hrs post-transfection
[invAb] = inverted abasic unit; m = 2'-O-methyl; r = 2'-OH (RNA); f = 2'-fluoro
Please respond with reported % KD for every item in the list.
Dear colleague, please return just the value in %, with no unit written.

Output measured % KD for this item: 29963-DC: Bach1 siNA duplex, target site 362; sense B GGAuuuGAAccuuuAAuuc TTB (SEQ 75); antisense GAAuuAAAGGuucAAAuccUU (SEQ 76) (sense GGAUUUGAACCUUUAAUUCTT; antisense GAAUUAAAGGUUCAAAUCCUU; sense: DNA at AGT, 2'-fluoro at CU, [invAb] at 5' end, 3' end, backbone not given here; antisense: sugars from the 5' end rrrffmmmmmfffmmmfffmm, backbone not given here)
32.9

Answer with reported % KD of 29952-DC: Bach1 siNA duplex, target site 732; sense B cAuAuGAGuccAuGuGcuu TTB (SEQ 53); antisense AAGcAcAuGGAcucAuAuGUU (SEQ 54) (sense CAUAUGAGUCCAUGUGCUUTT; antisense AAGCACAUGGACUCAUAUGUU; sense: DNA at AGT, 2'-fluoro at CU, [invAb] at 5' end, 3' end, backbone not given here; antisense: sugars from the 5' end rrrfmfmfmmmfffmfmfmmm, backbone not given here)
75

Identify the reported % KD for the following entry. 29957-DC (sense GCAGUUACUUCCACUCAAGTT; antisense CUUGAGUGGAAGUAACUGCUU; inverted abasic end caps, TT overhangs, modified nucleotides, further chemistry not given here)
84.6

Name the recorded % KD of the item 29949-DC: Bach1 siNA duplex, target site 664; sense B GuGuAAAcuccGcAGGuAu TTB (SEQ 47); antisense AUAccuGcGGAGuuuAcAcUU (SEQ 48) (sense GUGUAAACUCCGCAGGUAUTT; antisense AUACCUGCGGAGUUUACACUU; sense: DNA at AGT, 2'-fluoro at CU, [invAb] at 5' end, 3' end, backbone not given here; antisense: sugars from the 5' end rrrfffmfmmmmfffmfmfmm, backbone not given here) in your answer.
25

Entry 29947-DC (sense GGAAUCCUGCUUUCAGUUUTT; antisense AAACUGAAAGCAGGAUUCCUU; inverted abasic caps (B), 2'-modified nucleotides, further chemistry not given here) needs its % KD filled in; supply it.
83.4

Attribution: patent US20120016010A1
